Molecular target: T1, human LILRA6 (human, UniProt Q6PI73 24-481)
T1 construct: Over-expressed on CHO-s cells; also called hLILRA6
T1 sequence (Q6PI73 24-481 limits assumed): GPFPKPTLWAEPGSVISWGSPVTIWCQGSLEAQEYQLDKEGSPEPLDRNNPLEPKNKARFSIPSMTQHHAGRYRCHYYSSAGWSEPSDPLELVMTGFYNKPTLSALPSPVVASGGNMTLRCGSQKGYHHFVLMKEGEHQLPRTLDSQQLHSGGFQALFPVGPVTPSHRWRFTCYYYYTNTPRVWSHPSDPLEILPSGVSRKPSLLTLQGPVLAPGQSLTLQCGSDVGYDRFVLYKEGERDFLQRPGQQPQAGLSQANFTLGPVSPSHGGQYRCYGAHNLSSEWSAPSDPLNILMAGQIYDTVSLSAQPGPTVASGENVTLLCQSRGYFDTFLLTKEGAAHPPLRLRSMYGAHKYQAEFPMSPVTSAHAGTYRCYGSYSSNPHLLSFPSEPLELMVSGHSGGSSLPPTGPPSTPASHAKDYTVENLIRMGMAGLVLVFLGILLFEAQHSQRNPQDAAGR
Assay: flow cytometry, LILRA6 CHOs

binder: J-19.h3 (antibody, human IgG4 S228P, kappa, V domains shown, Humanized, human IgG4 backbone) VH: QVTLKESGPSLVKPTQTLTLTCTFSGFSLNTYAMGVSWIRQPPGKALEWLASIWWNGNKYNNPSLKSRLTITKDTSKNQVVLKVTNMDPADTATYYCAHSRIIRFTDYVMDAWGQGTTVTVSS VL: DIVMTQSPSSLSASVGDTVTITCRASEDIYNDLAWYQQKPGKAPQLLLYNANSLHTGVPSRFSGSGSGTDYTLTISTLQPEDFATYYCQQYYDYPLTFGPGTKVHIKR
valueUnits: fold over iso
binding (fold over iso): 1.03
--
binder: J-19.h2 (antibody, human IgG4 S228P, kappa, V domains shown, Humanized, human IgG4 backbone) VH: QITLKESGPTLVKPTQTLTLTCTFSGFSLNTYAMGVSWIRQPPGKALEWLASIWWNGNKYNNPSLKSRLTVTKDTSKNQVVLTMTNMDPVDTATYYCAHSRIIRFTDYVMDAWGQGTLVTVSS VL: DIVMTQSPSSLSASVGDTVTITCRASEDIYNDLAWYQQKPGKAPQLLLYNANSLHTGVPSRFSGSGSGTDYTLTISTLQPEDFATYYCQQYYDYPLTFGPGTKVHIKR
valueUnits: fold over iso
binding (fold over iso): 0.74
--
binder: J-19.h4 (antibody, human IgG4 S228P, kappa, V domains shown, Humanized, human IgG4 backbone) VH: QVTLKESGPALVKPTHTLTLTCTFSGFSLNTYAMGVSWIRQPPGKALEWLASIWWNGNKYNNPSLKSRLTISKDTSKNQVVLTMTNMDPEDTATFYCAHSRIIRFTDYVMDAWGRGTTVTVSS VL: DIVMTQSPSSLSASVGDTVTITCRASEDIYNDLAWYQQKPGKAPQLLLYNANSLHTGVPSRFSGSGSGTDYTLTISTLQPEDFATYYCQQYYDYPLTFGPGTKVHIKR
valueUnits: fold over iso
binding (fold over iso): 1.27
